B1: glmS ribozyme (parent)
chain: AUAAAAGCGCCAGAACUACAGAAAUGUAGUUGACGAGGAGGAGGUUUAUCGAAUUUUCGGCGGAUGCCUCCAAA

# Variants of: B1
# protocol.notes: KM; higher = weaker cofactor use; RNA array
# assay.setup: with glucosamine-6-phosphate
KM listing for selected variants.
Number only, in µM; omit the unit.

These solved cases illustrate the format of a correct answer.
> print(dat)
   mutation.notation  quantity.name  unit.of.measure  measured.number
1               U56A             KM               µM             1750
2               A12C             KM               µM             2170
3          U54A C70U             KM               µM             78.3

Ask: Please list KM recorded for the variant A14C A15U
Result: 3640

Ask: Please list KM recorded for the variant A15C C58A
Result: 2130
